Reference source: the Human Domainome abundance scans (Beltran et al. 2025)

B1: Poly(rC)-binding protein 1, residues 278 to 350; numbered along this chain, Q15365 (parent)
chain: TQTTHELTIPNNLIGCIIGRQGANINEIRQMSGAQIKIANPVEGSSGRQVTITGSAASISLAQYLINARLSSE

- Variants of: B1
- testDescription: abundance fitness (aPCA) (normalised: wild type 0, dead -1); higher = more abundant; growth selection in yeast, the domain comes from the species named
- conditionDescription: Homo sapiens
Parameter threshold = -0.04. Response is yes (1) when abundance fitness meets or exceeds it, else no (0).

> print(dat)
    variantannotation    class
 1               Q49E   no (0)
 2               A68W   no (0)
 3               S45A  yes (1)
 4               S71F   no (0)
 5                T3K  yes (1)
 6               G33T   no (0)
 7               I66F   no (0)
 8               G19E   no (0)
 9                T8M  yes (1)
10               A39F   no (0)
11               G44A   no (0)
12               R69M   no (0)
13               V42I  yes (1)
14               I36C   no (0)
15               Q21F   no (0)
16               T53Y   no (0)
17               P41I   no (0)
18               L13I   no (0)
19                L7H   no (0)
20               A34S   no (0)
21               N67Q   no (0)
22                T1D  yes (1)
23               E43V  yes (1)
24               A62V   no (0)
25               Q30R  yes (1)
26               L65R   no (0)
27               Q63Y   no (0)
28               Q63C   no (0)
29               K37Q  yes (1)
30               I18A   no (0)
31               S60D  yes (1)
32               G54C   no (0)
33               G47L  yes (1)
34               A57C  yes (1)
35               G15M  yes (1)
36               G47T  yes (1)
37               N11K   no (0)
38               S60H  yes (1)
39               S72D   no (0)
40               S60Q  yes (1)
41               L13G   no (0)
42               N67V   no (0)
43               V42G   no (0)
44               I36A   no (0)
45                I9D   no (0)
46               S71G   no (0)
47               I52N   no (0)
48               S60Y   no (0)
49               S32W   no (0)
50               E27D   no (0)
51               M31E  yes (1)
52               I28L   no (0)
53               Y64N  yes (1)
54               I36W   no (0)
55               P41L   no (0)
56               Q35F   no (0)
